# test-protocol: TIMS collisional cross section (CCS, N2) of the lipid ion; higher = larger ion cross section
# recorded-conditions: sample type: HeLa; ionization mode: positive; one isomer drawn
Note to self: values exactly at 300 Å² are fulfilled. So TIMS collisional cross section at or above 300 Å² is fulfilled, below is not fulfilled.

Data request: Does CCCC/C=C\CCCCCCCC(=O)OC[C@H](COP(=O)([O-])OCC[N+](C)(C)C)OC(=O)CCCCCCC/C=C\CCCCCC [PC 14:1@_16:1] (ion (formula + adduct): [C38H72NO8P+H] 1+) have a reported TIMS collisional cross section of at least 300 Å²?
Data returned: not fulfilled
